Tested target: M1 muscarinic receptor (Homo sapiens)
Construct: expressed in transfected cells; host or cells: CHO (M1-CHO)
Sequence (P11229 whole entry): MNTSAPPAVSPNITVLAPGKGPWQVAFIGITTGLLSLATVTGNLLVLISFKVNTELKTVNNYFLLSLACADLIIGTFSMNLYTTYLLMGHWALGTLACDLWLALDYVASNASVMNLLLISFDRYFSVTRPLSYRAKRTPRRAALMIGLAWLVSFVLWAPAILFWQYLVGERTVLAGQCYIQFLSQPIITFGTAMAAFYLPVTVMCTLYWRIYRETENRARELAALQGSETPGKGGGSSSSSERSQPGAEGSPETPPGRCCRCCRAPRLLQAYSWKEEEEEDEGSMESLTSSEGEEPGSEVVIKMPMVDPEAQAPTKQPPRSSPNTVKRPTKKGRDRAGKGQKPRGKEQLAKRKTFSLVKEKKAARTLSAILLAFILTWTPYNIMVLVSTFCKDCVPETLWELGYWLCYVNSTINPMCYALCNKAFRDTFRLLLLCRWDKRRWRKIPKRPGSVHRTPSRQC
Procedure text: Functional mobilization of intracellular calcium (FLIPR) in M1-CHO cells
Type: cell-based
Cond: Table 4; 100% efficacy is the maximum response obtained with the Carbachol control
Readout name: Emax

Incoming: Which Emax value is on record for CC(C)N(C(=O)N[C@H]1CC2(CCN(C3CC4CC[C@@H]3C4)CC2)c2ccccc21)C(C)C (stereo partly shown) ?
Outgoing: < 25%

Incoming: Ok, now CCOC(=O)N1CCC(N2CCC3(CC(=O)c4cc(F)ccc43)C2)CC1 (stereo not shown)
Outgoing: 25 to 100%

Incoming: Try O=C(N[C@H]1CC2(CCN(C3C[C@H]4CC[C@@H]3C4)CC2)c2ccccc21)N1CCCCC1 (stereo partly shown) next.
Outgoing: < 25%

Incoming: Please do the same for CCCC#CCOC(=O)N1C2CCC1CC(N1CCC3(CC1)CN(C(C)=O)c1ccccc13)C2 (stereo not shown) as well.
Outgoing: 25 to 100%

Incoming: Next record, please: CC#CC(C)OC(=O)N1C2CCC1CC(N1CCC3(CC1)CN(C(C)=O)c1ccccc13)C2 (stereo not shown)
Outgoing: 25 to 100%

Incoming: What about CCOC(=O)N1CCC(N2CCC3(CC2)CN(C(C)=O)c2c(C4=CCCC4)cccc23)CC1 ?
Outgoing: < 25%

Incoming: Please do the same for C#CC(=O)N1CCC(N2CCC3(CC2)CN(C(=O)N(C)C)c2ccc(F)cc23)CC1 as well.
Outgoing: 25 to 100%

Incoming: Next compound: COC(=O)N1CCC(CCN2CCC3(CCC(NC(C)=O)c4ccccc43)CC2)CC1 (stereo not shown)
Outgoing: 25 to 100%

Incoming: Now give it for C#Cc1ccc2c(c1)C1(CCN(C3CCN(C(=O)OCC)CC3)CC1)CN2C(C)=O too.
Outgoing: > 100%

Incoming: Consider next the compound CN(C)C(=O)N1CC2(CCN(C3CCN(C(=O)c4ccnnc4)CC3)CC2)c2cc(F)ccc21 in the same way.
Outgoing: 25 to 100%

Incoming: Please give the result for CC(=O)NC1CCC2(CCN(CCC3CCCN(C(=O)N(C)C)C3)CC2)c2ccccc21 (stereo not shown) too.
Outgoing: 25 to 100%

Incoming: What do you have for CC(=O)N[C@H]1CCC2(CCN(C3CCN(C(=O)OC(C)(C)C)CC3)CC2)c2ccccc21 ?
Outgoing: 25 to 100%

Incoming: Another compound to check: CC(=O)NC1CCC2(CCN(CCC3CCCN(C(=O)C(C)(C)C)C3)CC2)c2ccccc21 (stereo not shown)
Outgoing: 25 to 100%

Incoming: Query CC1=C(CCN2CCC3(CC2)C[C@H](NC(=O)c2ccoc2)c2ccccc23)C(C)(C)CCC1 next
Outgoing: < 25%

Incoming: Moving on to the next compound: CN(C)C(=O)N1CC2(CCN(C3CCN(C(=O)[C@@H]4CCCO4)CC3)CC2)c2cc(F)ccc21
Outgoing: 25 to 100%

Incoming: CCC(=O)CCN1CCC(N2CCC3(CC2)CN(C(C)=O)c2ccc(F)cc23)CC1 , same question.
Outgoing: < 25%

Incoming: One more compound: CN(C)C(=O)N1CC2(CCN(C3CCN(c4ncnc5ccsc45)CC3)CC2)c2cc(F)ccc21
Outgoing: 25 to 100%

Incoming: Now consider CCCOC(=O)N1CC[C@@H](CN2CCC3(CC2)CN(C(C)=O)c2ccccc23)C1 .
Outgoing: < 25%

Incoming: Note, next up: CN(C)C(=O)N1CC2(CCN(C3CCN(c4ccsc4)CC3)CC2)c2cc(F)ccc21
Outgoing: 25 to 100%

Incoming: Lookup CCOC(=O)N1CCC(N2CCC3(CC2)CN(C(=O)NC(C)C)c2ccccc23)CC1
Outgoing: 25 to 100%

Incoming: Note, next up: CC(=O)N[C@@H]1CCC2(CCN(CC3CC4C=CC3C4)CC2)c2ccccc21 (stereo partly shown)
Outgoing: < 25%

Incoming: Repeat for the following compound: CC(=O)N[C@H]1CC2(CCN(CC(=O)N3CCC(=O)N3)CC2)c2ccccc21
Outgoing: < 25%

====

Tested target: M1 muscarinic receptor (Homo sapiens)
Construct: expressed in transfected cells; host or cells: CHO (M1-CHO)
Procedure text: Functional mobilization of intracellular calcium (FLIPR) in M1-CHO cells
Assay type: cell-based
Cond: Table 4; 100% efficacy is the maximum response obtained with the Carbachol control
Could you please report measured Emax for the items listed next?

Incoming: Need Emax of CN(C)C(=O)N[C@H]1CCC2(CCN([C@@H]3C[C@@H]4CC[C@H]3C4)CC2)c2ccccc21 [compound 789] , thanks.
Outgoing: 25 to 100%

Incoming: Please answer likewise for O=C1CC2(CCN([C@@H]3C[C@H]4CC[C@@H]3C4)CC2)c2ccccc21 [compound 732]
Outgoing: 25 to 100%

Incoming: Would you mind doing CCC#CCOC(=O)N1CCC(N2CCC3(CC2)CN(C(C)=O)c2cccc(C)c23)CC1 [compound 825] as well?
Outgoing: 25 to 100%

Incoming: Do the same for CCC#CCOC(=O)N1CC[C@@H](CN2CCC3(CC2)CN(C(C)=O)c2cccc(C)c23)C1 [compound 793] please
Outgoing: 25 to 100%

Incoming: Please answer likewise for CN(C)C(=O)N1CC2(CCN(C3CCN(C(=O)c4ccccn4)CC3)CC2)c2cc(F)ccc21 [compound 718]
Outgoing: < 25%

Incoming: And CCOC(=O)N1C2CCC1CC(N1CCC3(CC1)CN(C(C)=O)c1ccc(OC)cc13)C2 (stereo not drawn) [compound 754] ?
Outgoing: 25 to 100%

Incoming: Try this molecule too: COc1ccccc1N1CCC(N2CCC3(CC2)CN(C(=O)N(C)C)c2ccc(F)cc23)CC1 [compound 552]
Outgoing: 25 to 100%

Incoming: Here is the next molecule: CC(=O)N1CC2(CCN(C3CCN(C(=O)OC(C)C)CC3)CC2)c2ccccc21 [compound 440]
Outgoing: 25 to 100%

Incoming: Could you do the same for CS(=O)(=O)N[C@H]1CCC2(CCN(CC3CCCCC3)CC2)c2ccccc21 [compound 773] , please?
Outgoing: 25 to 100%

Incoming: One more molecule: O=C1CCCN1[C@H]1CCC2(CCN(C[C@@H]3C[C@H]4C=CC3C4)CC2)c2ccccc21 [compound 856]
Outgoing: 25 to 100%

Incoming: Note, next up: COCCOC(=O)N1C2CCC1CC(N1CCC3(CC1)CN(C(C)=O)c1ccccc13)C2 (stereo not drawn) [compound 607]
Outgoing: 25 to 100%

Incoming: Let us now turn to Cc1ccc2c(c1)C1(CCN(C3CC4CCC3C4)CC1)CN2C(=O)c1ccncc1 (stereo not drawn) [compound 840]
Outgoing: < 25%

Incoming: Field entry: O=C(O)C1CC2(CCN(CC3CCCCC3)CC2)c2ccccc21 (stereo not drawn) [compound 803]
Outgoing: < 25%

Incoming: Input CN(C)C(=O)N[C@H]1CCC2(CCN(C3CCCCCC3)CC2)c2ccccc21 [compound 617]
Outgoing: 25 to 100%

Incoming: Consider next the molecule COCCN1CC2(CCN([C@@H]3C[C@H]4CCC3C4)CC2)c2cc(C)ccc21 [compound 737] in the same way.
Outgoing: 25 to 100%

Incoming: Cool, now CCOC(=O)N1CCC(N2CCC3(CC2)CN(c2nc(C)ns2)c2ccccc23)CC1 [compound 700]
Outgoing: > 100%

Incoming: Do the same for CN(C)C(=O)N1CC2(CCN(C3CCN(C(=O)C4CC4)CC3)CC2)c2cc(F)ccc21 [compound 701] please
Outgoing: 25 to 100%

Incoming: What would you report for CCC(=O)N1CCC(N2CCC3(CC2)CN(C(=O)N(C)C)c2ccc(F)cc23)CC1 [compound 464] ?
Outgoing: 25 to 100%

Incoming: For CC(=O)N[C@H]1CC2(CCN(CC3CCCC3)CC2)c2ccccc21 [compound 934] then?
Outgoing: 25 to 100%

Incoming: Moving on to CCC(C)C(=O)N1CCC(N2CCC3(CC2)CN(C(C)=O)c2ccccc23)CC1 (stereo not drawn) [compound 1000]
Outgoing: 25 to 100%

Incoming: Here is the next molecule: CCOC(=O)N1CCC(N2CCC3(CC2)CN(c2cnccn2)c2ccc(F)cc23)CC1 [compound 752]
Outgoing: 25 to 100%

Incoming: Repeat with O=C(N[C@H]1CC2(CCN([C@@H]3C[C@@H]4CC[C@@H]3C4)CC2)c2ccccc21)c1ccoc1 [compound 868]
Outgoing: < 25%

Incoming: Same lookup for CCCOC(=O)N1CCC(N2CCC3(CC2)CN(CCOC)c2ccc(F)cc23)CC1 [compound 596] , please.
Outgoing: 25 to 100%

Incoming: Please do the same for CC(=O)N1CC2(CCN(C3CCN(C(=O)OCC(F)F)CC3)CC2)c2cc(C)ccc21 [compound 829] as well.
Outgoing: 25 to 100%
